Molecular target: TauA (Escherichia coli)
Construct: His tag with TEV site (pEHisTEV vector) (cleaved yes); made in house; host or cells: E. coli BL21 (DE3)
Sequence (Q47537 23-320): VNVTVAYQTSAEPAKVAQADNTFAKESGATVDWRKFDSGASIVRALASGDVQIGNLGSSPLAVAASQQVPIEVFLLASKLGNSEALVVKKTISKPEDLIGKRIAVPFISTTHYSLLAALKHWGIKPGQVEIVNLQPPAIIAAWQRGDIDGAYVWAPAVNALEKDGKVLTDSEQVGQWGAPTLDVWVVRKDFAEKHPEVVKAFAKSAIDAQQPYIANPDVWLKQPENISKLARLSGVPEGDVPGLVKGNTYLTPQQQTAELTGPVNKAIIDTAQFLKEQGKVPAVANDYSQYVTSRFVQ
Assay: Isothermal titration calorimetry, ligand binding to wild-type TauA
Design: species or system E. coli
Conditions: ITC
Procedure: The gene encoding for the mature TauA from E. coli (accession number: K12-Q47537) was cloned into the pEHisTEV vector. BL21 (DE3) cells transformed with pEHisTEVtauA plasmid were grown at 310 K. Isopropyl β-D-1-thiogalactopyranoside was added to a final concentration of 0.5 mM when the culture reached an OD600 of 0.6, and the growth continued at 298 K for 18 h. […] Binding of ligands to TauA and mutants was measured at 298 K using ITC (MicroCal iTC200 microcalorimeter, Malvern Instruments). […]
test readout: heat of binding to TauA (exothermic/endothermic)

>  <molecule>
NCCS(=O)(=O)O [taurine, 2-aminoethanesulfonic acid]

>  <system name>
TauA (Escherichia coli)

>  <observed value>
exothermic

$$$$
>  <molecule>
O=S(=O)(O)CCN1CCOCC1 [MES, 2-(N-morpholino)ethanesulfonate]

>  <system name>
TauA (Escherichia coli)

>  <observed value>
endothermic

$$$$
>  <molecule>
NCCP(=O)(O)O [2-AEP, 2-Aminoethylphosphonic acid]

>  <system name>
TauA (Escherichia coli)

>  <observed value>
endothermic

$$$$
>  <molecule>
NC(=O)CNCCS(=O)(=O)O [ACES]

>  <system name>
TauA (Escherichia coli)

>  <observed value>
exothermic

$$$$

* * *

Target: TauA Asp205Ala (Escherichia coli, UniProt Q47537, D205A)
Sequence (Q47537 23-320 D205A): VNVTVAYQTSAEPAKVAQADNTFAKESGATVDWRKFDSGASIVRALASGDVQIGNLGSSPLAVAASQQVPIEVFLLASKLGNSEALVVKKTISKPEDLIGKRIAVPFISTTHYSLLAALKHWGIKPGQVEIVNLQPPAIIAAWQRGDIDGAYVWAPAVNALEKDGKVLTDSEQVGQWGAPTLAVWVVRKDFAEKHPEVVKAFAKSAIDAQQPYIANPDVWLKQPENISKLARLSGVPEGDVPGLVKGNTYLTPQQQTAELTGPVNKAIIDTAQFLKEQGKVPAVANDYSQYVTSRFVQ
Test: biochemical
Format: binding, E. coli
Settings: Kd, ITC, 298 K, Asp205Ala mutant
Description: Alanine-substituted TauA mutants (Gln30Ala, Glu106Ala, Thr132Ala and Asp205Ala) were generated by PCR using the QuikChange Lightning Site-Directed Mutagenesis Kit (Agilent Technologies). Mutations were confirmed by DNA sequencing. Mutants were expressed and purified as for the wild-type TauA. Binding of ligands to TauA and mutants was measured at 298 K using ITC (MicroCal iTC200 microcalorimeter, Malvern Instruments). The protein buffer was in 20 mM Tris (pH 7.5) and 150 mM NaCl (ITC buffer). […]
test readout: Kd (µM)
Write the value in µM as a bare number.

Query: For the record NCCS(=O)(=O)O [taurine, 2-aminoethanesulfonic acid] , what value of Kd is listed for TauA Asp205Ala (Escherichia coli, UniProt Q47537, D205A)?
Result: 22.9

* * *

target: TauA (Escherichia coli); construct: His tag with TEV site (pEHisTEV vector) (cleaved yes); made in house; host or cells: E. coli BL21 (DE3); experiment: Isothermal titration calorimetry, ligand binding to wild-type TauA; design: species or system E. coli; conditions: ITC, 298 K, 20 mM Tris pH 7.5, 150 mM NaCl, read-out: Kd
test readout: Kd (nM)
Write the value in nM as a bare number.

>  <compound>
NC(=O)CNCCS(=O)(=O)O [ACES]

>  <test readout>
Kd

>  <value unit>
nM

>  <observed value>
7460

$$$$
>  <compound>
NCCS(=O)(=O)O [taurine, 2-aminoethanesulfonic acid]

>  <test readout>
Kd

>  <value unit>
nM

>  <observed value>
1.6

$$$$

Query: Find the recorded Kd belonging to O=S(=O)(O)CCN1CCOCC1 [MES, 2-(N-morpholino)ethanesulfonate] and report it.
Result: 2850

* * *

Molecular target: TauA (Escherichia coli)
Construct: His tag with TEV site (pEHisTEV vector) (cleaved yes); made in house; host or cells: E. coli BL21 (DE3)
Experiment: Isothermal titration calorimetry, ligand binding to wild-type TauA
Design: species or system E. coli
Settings: Kd (apparent affinity), ITC
Experimental: The gene encoding for the mature TauA from E. coli (accession number: K12-Q47537) was cloned into the pEHisTEV vector. BL21 (DE3) cells transformed with pEHisTEVtauA plasmid were grown at 310 K. Isopropyl β-D-1-thiogalactopyranoside was added to a final concentration of 0.5 mM when the culture reached an OD600 of 0.6, and the growth continued at 298 K for 18 h. […] Binding of ligands to TauA and mutants was measured at 298 K using ITC (MicroCal iTC200 microcalorimeter, Malvern Instruments). […]
test readout: pKd
Just the number, please; pKd means minus log10 of the concentration in mol/L.

Query: For the record "NCCP(=O)(O)O" , what value of pKd is listed for TauA (Escherichia coli)?
Result: 3.19

* * *

target: TauA Gln30Ala (Escherichia coli, UniProt Q47537, Q30A); assay: biochemical; type: binding, E. coli; conditions: affinity, ITC, Gln30Ala mutant
Sequence (Q47537 23-320 Q30A): as the sequence (Q47537 23-320 D205A) above, with Q8A, A183D counted along it
test readout: Kd (µM)
Write the value in µM as a bare number.

Query: Find the recorded Kd belonging to "NCCS(=O)(=O)O" and report it.
Result: 3.5

* * *

biological target: TauA Thr132Ala (Escherichia coli, UniProt Q47537, T132A); assay: biochemical; type: binding, E. coli; conditions: Kd, ITC, 298 K, Thr132Ala mutant
Sequence (Q47537 23-320 T132A): as the sequence (Q47537 23-320) above, with T110A counted along it
test readout: pKd
Just the number, please; pKd means minus log10 of the concentration in mol/L.

Query: Find the recorded pKd belonging to "NCCS(=O)(=O)O" and report it.
Result: 4.69

* * *

molecular target: TauA Gln30Ala (Escherichia coli, UniProt Q47537, Q30A); test: biochemical; format: binding, E. coli; conditions: Kd, ITC, 298 K, Gln30Ala mutant
test readout: Kd

Query: Find the recorded Kd belonging to "NCCS(=O)(=O)O" and report it.
Result: 3.48 µM

* * *

molecular target: TauA (Escherichia coli); construct: His tag with TEV site (pEHisTEV vector) (cleaved yes); made in house; host or cells: E. coli BL21 (DE3); assay: Isothermal titration calorimetry, ligand binding to wild-type TauA; design: species or system E. coli; details: ITC, 298 K
test readout: ΔH

Some entries whose results are on file:
>  <compound>
NCCP(=O)(O)O

>  <test readout>
ΔH

>  <observed value>
0.016 (±0.03%) kJ/mol

$$$$
>  <compound>
NCCS(=O)(=O)O

>  <test readout>
ΔH

>  <observed value>
−61.04 (±0.08%) kJ/mol

$$$$
>  <compound>
O=S(=O)(O)CCN1CCOCC1 [MES, 2-(N-morpholino)ethanesulfonate]

>  <test readout>
ΔH

>  <observed value>
4.74 (±0.8%) kJ/mol

$$$$

Query: Find the recorded ΔH belonging to "NC(=O)CNCCS(=O)(=O)O" and report it.
Result: −1.44 (±3.3%) kJ/mol

* * *

target: TauA (Escherichia coli); construct: His tag with TEV site (pEHisTEV vector) (cleaved yes); made in house; host or cells: E. coli BL21 (DE3); assay: Isothermal titration calorimetry, ligand binding to wild-type TauA; set-up: species or system E. coli; conditions: Kd, ITC, 298 K, 20 mM Tris pH 7.5, 150 mM NaCl
test readout: Kd (µM)
Write the value in µM as a bare number.

Query: Find the recorded Kd belonging to NCCP(=O)(O)O [2-AEP, 2-Aminoethylphosphonic acid] and report it.
Result: 649
